MEASURED_TARGET: Muscarinic acetylcholine receptor
METHOD_NOTES: In vitro binding affinity to the Muscarinic acetylcholine receptor by displacing [3H]QNB from the rat brain tissues
PROPERTY: IC50 (nM)

1. C#CCOc1noc2c1CNCCC2
2. COc1noc2c1CNCCC2
Which item exceeds the other in IC50, 1 or 2 ? # respond with the chosen item's label
2
(2: 6400 nM, 1: 480 nM)

A. CCOc1noc2c1CNCCC2
B. CC(C)Oc1noc2c1CNCCC2
Hello, I am sorting some records. Could you say if A or B has the smaller IC50 value? Your answer should be the label of the entry you select.
B

----------
MEASURED_TARGET: Muscarinic acetylcholine receptor M4 (Homo sapiens, UniProt P08173)
Sequence (P08173 whole entry): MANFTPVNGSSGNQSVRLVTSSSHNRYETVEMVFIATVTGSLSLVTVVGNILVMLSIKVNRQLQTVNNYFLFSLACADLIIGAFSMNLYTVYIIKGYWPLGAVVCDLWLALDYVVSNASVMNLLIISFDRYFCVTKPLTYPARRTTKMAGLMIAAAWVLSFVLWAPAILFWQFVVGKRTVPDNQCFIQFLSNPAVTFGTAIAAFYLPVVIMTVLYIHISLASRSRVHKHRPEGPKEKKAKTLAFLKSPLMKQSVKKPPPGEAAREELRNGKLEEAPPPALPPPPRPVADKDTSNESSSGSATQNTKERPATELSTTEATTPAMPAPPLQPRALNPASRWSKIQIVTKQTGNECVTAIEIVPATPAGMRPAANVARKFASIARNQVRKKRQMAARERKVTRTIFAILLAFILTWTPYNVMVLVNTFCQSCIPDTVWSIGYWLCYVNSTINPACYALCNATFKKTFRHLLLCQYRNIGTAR
METHOD_NOTES: In Vitro activity at the cloned Human Muscarinic acetylcholine receptor M4 determined by receptor selection and amplification technology (R-SAT)
PROPERTY: EC50 (nM)

CCOc1noc2c1CNCCC2: 67

1. COc1noc2c1CNCCC2
2. C#CCOc1noc2c1CNCCC2
Would you kindly point out which of 1 and 2 has the smaller EC50 figure? Selection: enter the item's label.
2
(2: 30 nM, 1: 240 nM)
